# target: CD73 (Homo sapiens (Human), UniProt P21589)
# Sequence (P21589 27-574): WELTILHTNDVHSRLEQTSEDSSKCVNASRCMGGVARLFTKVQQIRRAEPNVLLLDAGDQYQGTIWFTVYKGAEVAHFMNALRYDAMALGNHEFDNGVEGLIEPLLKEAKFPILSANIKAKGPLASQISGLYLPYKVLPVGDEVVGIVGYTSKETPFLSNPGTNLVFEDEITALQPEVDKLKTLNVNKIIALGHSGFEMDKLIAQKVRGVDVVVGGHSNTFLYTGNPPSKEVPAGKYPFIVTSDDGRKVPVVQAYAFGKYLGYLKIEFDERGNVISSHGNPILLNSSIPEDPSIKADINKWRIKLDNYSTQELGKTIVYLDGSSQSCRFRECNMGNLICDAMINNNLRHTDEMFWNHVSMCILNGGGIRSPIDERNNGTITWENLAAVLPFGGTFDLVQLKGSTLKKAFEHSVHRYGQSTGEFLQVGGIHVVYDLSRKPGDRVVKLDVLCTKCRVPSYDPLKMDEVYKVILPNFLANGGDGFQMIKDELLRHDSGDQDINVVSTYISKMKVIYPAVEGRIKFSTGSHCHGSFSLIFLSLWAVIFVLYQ
# Assay type: biochemical
# condition parameters: 1 mM NaH2PO4 in enzyme buffer, CD73 0.3 nM, AMP 15 uM
Threshold-based label: IC50 under 2 nM gives Fulfilled, IC50 not under 2 nM gives Not fulfilled.

Answered examples (2):
>>> cat("O=c1[nH]cc(-c2cc([C@H]3C[C@@H]3c3ccc4cnn(CC(F)(F)F)c4n3)c3ncc(F)n3n2)c(=O)[nH]1 (racemic) [Example 602]")
"Fulfilled"
>>> cat("O=c1[nH]cc(-c2cc([C@H]3C[C@@H]3c3ncc(C(F)(F)F)s3)c3nccn3n2)c(=O)[nH]1 (racemic)")
"Not fulfilled"

# check: IC50 < 2 nM for Cc1cc([C@H]2C[C@@H]2c2cc(-c3c[nH]c(=O)[nH]c3=O)nn3ccnc23)cc(F)c1C#N
Fulfilled

Same lookup for O=C(NC1CN(c2cc(-c3c[nH]c(=O)[nH]c3=O)nn3ccnc23)CC1(F)F)OCC(F)F (stereo not drawn) , please.
Not fulfilled

Same lookup for O=C(Nc1ccccc1F)OCC(F)(F)COc1cc(-c2c[nH]c(=O)[nH]c2=O)nn2ccnc12 , please.
Fulfilled

Same lookup for CC(C)(O)C#Cc1cc(-c2c[nH]c(=O)[nH]c2=O)nn2ccnc12 , please.
Not fulfilled

All values here come from patent US20240043427A1.
